Test: Cytotoxicity against human HepG2 cells assessed as cell viability at 50 uM after 48 hrs by MTS assay
Format: cell-based
Details: read-out: Activity
recordedMetric: viability at 48 h, 50 µM (%)
# number only, unit % dropped from output

O=[N+]([O-])c1cc(CSc2nnc(-c3ccc(Cl)cc3)s2)cc([N+](=O)[O-])c1	98.5

Q: Indicate the recorded viability at 48 h, 50 µM value for this compound: `Cc1ccc(-c2nnc(SCc3cc([N+](=O)[O-])cc([N+](=O)[O-])c3)o2)cc1`
Result: 95.5

* * *

Test: Cytotoxicity against human HeLa cells assessed as cell viability at 20 uM after 48 hrs by MTS assay
Type: cell-based
Conditions: read-out: Activity
The following molecules are listed with their measured viability at 48 h, 20 µM values.
# number only, unit % dropped from output

O=[N+]([O-])c1cc(CSc2nnc(-c3cccc(Cl)c3)s2)cc([N+](=O)[O-])c1	16.8

Q: Indicate the recorded viability at 48 h, 20 µM value for this molecule: `Cc1ccc(-c2nnc(SCc3cc([N+](=O)[O-])cc([N+](=O)[O-])c3)o2)cc1`
Result: 118

Q: Indicate the recorded viability at 48 h, 20 µM value for this molecule: `COc1cccc(-c2nnc(SCc3cc([N+](=O)[O-])cc([N+](=O)[O-])c3)o2)c1`
Result: 16.4

Q: Indicate the recorded viability at 48 h, 20 µM value for this molecule: `O=[N+]([O-])c1cc(CSc2nnc(-c3cccc(Cl)c3)o2)cc([N+](=O)[O-])c1`
Result: 34.6

Q: Indicate the recorded viability at 48 h, 20 µM value for this molecule: `COc1cccc(-c2nnc(SCc3cc([N+](=O)[O-])cc([N+](=O)[O-])c3)s2)c1`
Result: 17.5

* * *

The following compounds are listed with their measured IC50 values.
System: HepG2
Test: Cytotoxicity against human HepG2 cells assessed as cell viability after 48 hrs by MTS assay
Assay type: cell-based
Settings: HepG2, 48 h

Q: Indicate the recorded IC50 value for this compound: `Cc1ccc(-c2nnc(SCc3cc([N+](=O)[O-])cc([N+](=O)[O-])c3)o2)cc1`
Result: > 50 µM

Q: Indicate the recorded IC50 value for this compound: `O=[N+]([O-])c1cc(CSc2nnc(-c3ccc(Cl)cc3)s2)cc([N+](=O)[O-])c1`
Result: > 50 µM

* * *

Tested on: Salmonella typhimurium
Assay: Mutagenic activity in Salmonella typhimurium TA98 assessed as reverse mutation at 30 uM by Ames test
Format: toxicity, organism-based
Settings: salmonella enterica subsp. enterica serovar typhimurium
recordedMetric: Activity

O=[N+]([O-])c1cc(CSc2nnc(-c3ccccc3)s2)cc([N+](=O)[O-])c1	Non-toxic
COc1cccc(-c2nnc(SCc3cc([N+](=O)[O-])cc([N+](=O)[O-])c3)s2)c1	Non-toxic
O=[N+]([O-])c1ccc2c(c1)Cc1ccccc1-2 [2-NITROFLUORENE]	Toxic
O=[N+]([O-])c1cc(CSc2nnc(-c3cccc(Cl)c3)o2)cc([N+](=O)[O-])c1	Non-toxic

* * *

The following compounds are listed with their measured solubility at 24 h values.
Test: Aqueous solubility of compound in distilled water at 0.2 mg/ml after 24 hrs by HPLC analysis
Format: physicochemical
# number only, unit µM dropped from output

Cc1ccc(-c2nnc(SCc3cc([N+](=O)[O-])cc([N+](=O)[O-])c3)o2)cc1	0.067

Q: Indicate the recorded solubility at 24 h value for this compound: `O=[N+]([O-])c1cc(CSc2nnc(-c3ccc(Cl)cc3)s2)cc([N+](=O)[O-])c1`
Result: 0.03

* * *

Assay: Cytotoxicity against MDCK2-MDR1 cells assessed as cell viability at 20 uM after 48 hrs by MTS assay
Type: ADME, cell-based, Canis lupus familiaris, MDCK-II
Settings: dog, read-out: Activity
recordedMetric: viability at 48 h, 20 µM
Answer format: value, then unit.

O=[N+]([O-])c1cc(CSc2nnc(-c3ccc(Cl)cc3Cl)o2)cc([N+](=O)[O-])c1	27.9%
O=[N+]([O-])c1ccc(CSc2nnc(-c3ccccc3)o2)c([N+](=O)[O-])c1	73.3%
O=[N+]([O-])c1cc(CSc2nnc(-c3ccccc3)s2)cc([N+](=O)[O-])c1	7.3%
COc1ccc(-c2nnc(SCc3cc([N+](=O)[O-])cc([N+](=O)[O-])c3)s2)cc1	60%
COc1ccc(-c2nnc(SCc3cc([N+](=O)[O-])cc([N+](=O)[O-])c3)o2)cc1	14.5%
O=[N+]([O-])c1cc(CSc2nnc(-c3cccc(Cl)c3)s2)cc([N+](=O)[O-])c1	48.6%

Q: Indicate the recorded viability at 48 h, 20 µM value for this compound: `Cc1ccc(-c2nnc(SCc3cc([N+](=O)[O-])cc([N+](=O)[O-])c3)o2)cc1`
Result: 48.5%

Q: Indicate the recorded viability at 48 h, 20 µM value for this compound: `COc1cccc(-c2nnc(SCc3cc([N+](=O)[O-])cc([N+](=O)[O-])c3)o2)c1`
Result: 10.5%

Q: Indicate the recorded viability at 48 h, 20 µM value for this compound: `O=[N+]([O-])c1cc(CSc2nnc(-c3cccc(Cl)c3)o2)cc([N+](=O)[O-])c1`
Result: 57.9%

Q: Indicate the recorded viability at 48 h, 20 µM value for this compound: CO[C@H]1/C=C/O[C@@]2(C)Oc3c(C)c(O)c4c(O)c(c(/C=N/N5CCN(C)CC5)c(O)c4c3C2=O)NC(=O)/C(C)=C\C=C\[C@H](C)[C@H](O)[C@@H](C)[C@@H](O)[C@@H](C)[C@H](OC(C)=O)[C@@H]1C [RIFAMPIN]
Result: 106%

Q: Indicate the recorded viability at 48 h, 20 µM value for this compound: `COc1cccc(-c2nnc(SCc3cc([N+](=O)[O-])cc([N+](=O)[O-])c3)s2)c1`
Result: 18.5%

Q: Indicate the recorded viability at 48 h, 20 µM value for this compound: `O=[N+]([O-])c1cc(CSc2nnc(-c3ccc(Cl)cc3)s2)cc([N+](=O)[O-])c1`
Result: 91.4%

Q: Indicate the recorded viability at 48 h, 20 µM value for this compound: `COc1ccc(-c2nnc(SCc3ccc([N+](=O)[O-])cc3[N+](=O)[O-])o2)cc1`
Result: 78.5%

Q: Indicate the recorded viability at 48 h, 20 µM value for this compound: `O=[N+]([O-])c1cc(CSc2nnc(-c3ccccc3)o2)cc([N+](=O)[O-])c1`
Result: 42.4%

* * *

The following molecules are listed with their measured viability at 48 h, 20 µM values.
Assay: Cytotoxicity against human HeLa cells assessed as cell viability at 20 uM after 48 hrs by MTS assay
Type: cell-based
Conditions: read-out: Activity
# number only, unit % dropped from output

These solved cases illustrate the format of a correct answer.
COc1ccc(-c2nnc(SCc3ccc([N+](=O)[O-])cc3[N+](=O)[O-])o2)cc1	106
O=[N+]([O-])c1cc(CSc2nnc(-c3ccc(Cl)cc3)s2)cc([N+](=O)[O-])c1	108
COc1ccc(-c2nnc(SCc3cc([N+](=O)[O-])cc([N+](=O)[O-])c3)o2)cc1	37.3
O=[N+]([O-])c1cc(CSc2nnc(-c3ccccc3)s2)cc([N+](=O)[O-])c1	15.9

Next up:
Q: Indicate the recorded viability at 48 h, 20 µM value for this molecule: `O=[N+]([O-])c1cc(CSc2nnc(-c3ccccc3)o2)cc([N+](=O)[O-])c1`
Result: 33.2

* * *

The following compounds are listed with their measured MIC99 values.
System: Mycobacterium avium
Assay: Antimycobacterial activity against Mycobacterium avium CNCTC My 330/88 after 14 days by microdilution method
Format: functional
Conditions: CNCTC My 330/88, 336 h
# number only, unit µM dropped from output

These solved cases illustrate the format of a correct answer.
O=[N+]([O-])c1cc(CSc2nnc(-c3ccccc3)s2)cc([N+](=O)[O-])c1	8
O=[N+]([O-])c1ccc(CSc2nnc(-c3ccc(Cl)cc3)o2)c([N+](=O)[O-])c1	8
COc1ccc(-c2nnc(SCc3ccc([N+](=O)[O-])cc3[N+](=O)[O-])o2)cc1	4

Next up:
Q: Indicate the recorded MIC99 value for this compound: `O=[N+]([O-])c1ccc(CSc2nnc(-c3ccc(Cl)cc3)s2)c([N+](=O)[O-])c1`
Result: 4

* * *

Assay: Cytotoxicity against MDCK2-MDR1 cells assessed as cell viability at 20 uM after 24 hrs by MTS assay
Type: ADME, cell-based, Canis lupus familiaris, MDCK-II
Conditions: dog, read-out: Activity
recordedMetric: viability at 24 h, 20 µM (%)
# number only, unit % dropped from output

These solved cases illustrate the format of a correct answer.
O=[N+]([O-])c1cc(CSc2nnc(-c3ccccc3)s2)cc([N+](=O)[O-])c1	97.8
O=[N+]([O-])c1cc(CSc2nnc(-c3cccc(Cl)c3)s2)cc([N+](=O)[O-])c1	108
O=[N+]([O-])c1cc(CSc2nnc(-c3ccc(Cl)cc3Cl)o2)cc([N+](=O)[O-])c1	106
O=[N+]([O-])c1cc(CSc2nnc(-c3ccccc3)o2)cc([N+](=O)[O-])c1	72.6
O=[N+]([O-])c1cc(CSc2nnc(-c3ccc(Cl)cc3)s2)cc([N+](=O)[O-])c1	102

Next up:
Q: Indicate the recorded viability at 24 h, 20 µM value for this compound: `CO[C@H]1/C=C/O[C@@]2(C)Oc3c(C)c(O)c4c(O)c(c(/C=N/N5CCN(C)CC5)c(O)c4c3C2=O)NC(=O)/C(C)=C\C=C\[C@H](C)[C@H](O)[C@@H](C)[C@@H](O)[C@@H](C)[C@H](OC(C)=O)[C@@H]1C`
Result: 103
